# experimental-details: Transport in Caco-2 cells
# Assay type: in vitro ADME, human
# experimental-parameters: human, Caco-2, Caco-2, no inhibitor; Papp (BL−AP)/Papp (AP−BL); read-out: ERpermeability (efflux ratio)
assay-metric: efflux ratio at 120 min

>  <compound>
CC(CCC1(O)OC2CC3C4CCC5CC(OC6OC(CO)C(O)C(O)C6OC6OC(CO)C(O)C(O)C6O)CCC5(C)C4CCC3(C)C2C1C)COC1OC(CO)C(O)C(O)C1O (stereo not drawn)

>  <quantitative-result>
1.1

$$$$
>  <compound>
COc1ccc2cc3[n+](cc2c1OC)CCc1cc2c(cc1-3)OCO2

>  <quantitative-result>
71.4

$$$$

###

# experimental-details: PK in systemic plasma of GK rats after repeated oral administration (day 35)
# Type: in vivo, rat
# experimental-parameters: male, GK, rat, in vivo, po, 33.3 mg/kg, T1/2
assay-metric: half-life (min)

>  <compound>
CC(CCC1(O)OC2CC3C4CCC5CC(OC6OC(CO)C(O)C(O)C6OC6OC(CO)C(O)C(O)C6O)CCC5(C)C4CCC3(C)C2C1C)COC1OC(CO)C(O)C(O)C1O (stereo not shown)

>  <quantitative-result>
858

$$$$

###

exposure (AUC) of metabolite as share of the exposure of BBR overview
# experimental-details: Liver distribution in Wistar rats
# experimental-parameters: Wistar rats, liver, TB-2+BBR treatments
assay-metric: exposure (AUC) of metabolite as share of the exposure of BBR

>  <query-smiles>
COc1c(O)ccc2cc3[n+](cc12)CCc1cc2c(cc1-3)OCO2

>  <result>
144%

$$$$
>  <query-smiles>
COc1cc2c(cc1O)-c1cc3ccc(OC)c(OC)c3c[n+]1CC2

>  <result>
11%

$$$$
>  <query-smiles>
COc1cc2c(cc1O)CC[n+]1cc3c(OC)c(OC)ccc3cc1-2

>  <result>
15%

$$$$
>  <query-smiles>
COc1ccc2cc3[n+](cc2c1OC)CCc1cc(O)c(O)cc1-3

>  <result>
12%

$$$$

###

# experimental-details: Transport in Caco-2 cells
# Format: in vitro ADME, human
# experimental-parameters: human; Caco-2, no inhibitor; digoxin 10 μM, TB-2 5 μM, BBR 10 μM; n = 3
This listing pairs molecules with measured Papp A→B at 120 min.

>  <molecule>
C[C@H]1O[C@@H](O[C@H]2[C@@H](O)C[C@H](O[C@H]3[C@@H](O)C[C@H](O[C@H]4CC[C@@]5(C)[C@H](CC[C@@H]6[C@@H]5C[C@@H](O)[C@]5(C)[C@@H](C7=CC(=O)OC7)CC[C@]65O)C4)O[C@@H]3C)O[C@@H]2C)C[C@H](O)[C@@H]1O

>  <Papp A→B at 120 min, ×10⁻⁶ cm/s>
0.191

$$$$
>  <molecule>
COc1ccc2cc3[n+](cc2c1OC)CCc1cc2c(cc1-3)OCO2

>  <Papp A→B at 120 min, ×10⁻⁶ cm/s>
0.038

$$$$
>  <molecule>
CC(CCC1(O)OC2CC3C4CCC5CC(OC6OC(CO)C(O)C(O)C6OC6OC(CO)C(O)C(O)C6O)CCC5(C)C4CCC3(C)C2C1C)COC1OC(CO)C(O)C(O)C1O (stereo not drawn)

>  <Papp A→B at 120 min, ×10⁻⁶ cm/s>
0.057

$$$$

###

# experimental-details: in vivo
# experimental-parameters: male, Wistar, rat, po, 100 mg/kg, Tmax
assay-metric: Tmax

>  <molecule>
CC(CCC1(O)OC2CC3C4CCC5CC(OC6OC(CO)C(O)C(O)C6OC6OC(CO)C(O)C(O)C6O)CCC5(C)C4CCC3(C)C2C1C)COC1OC(CO)C(O)C(O)C1O (stereo not shown)

>  <result>
2 h

$$$$

###

# experimental-details: Liver distribution in Wistar rats
# experimental-parameters: Wistar rats, liver, single oral BBR+TB-2 (66.7+33.3 mg/kg), n = 5
Entries and their AUC ± SE
assay-metric: AUC ± SE

>  <query-smiles>
COc1ccc2cc3[n+](cc2c1OC)CCc1cc(O)c(O)cc1-3

>  <assay-metric>
AUC ± SE

>  <result>
572.9 ± 34.7^∗∗∗ h ∗ ng/g

$$$$
>  <query-smiles>
COc1cc2c(cc1O)-c1cc3ccc(OC)c(OC)c3c[n+]1CC2

>  <assay-metric>
AUC ± SE

>  <result>
489.2 ± 59.2^∗ h ∗ ng/g

$$$$
>  <query-smiles>
COc1ccc2cc3[n+](cc2c1OC)CCc1cc2c(cc1-3)OCO2

>  <assay-metric>
AUC ± SE

>  <result>
4600.3 ± 645.1 h ∗ ng/g

$$$$
>  <query-smiles>
COc1c(O)ccc2cc3[n+](cc12)CCc1cc2c(cc1-3)OCO2

>  <assay-metric>
AUC ± SE

>  <result>
6651.2 ± 469.0 h ∗ ng/g

$$$$
>  <query-smiles>
COc1cc2c(cc1O)CC[n+]1cc3c(OC)c(OC)ccc3cc1-2

>  <assay-metric>
AUC ± SE

>  <result>
690.8 ± 59.6^∗ h ∗ ng/g

$$$$
>  <query-smiles>
COc1ccc2cc3[n+](cc2c1O)CCc1cc2c(cc1-3)OCO2

>  <assay-metric>
AUC ± SE

>  <result>
3565.3 ± 256.7^∗∗∗ h ∗ ng/g

$$$$

###

# experimental-details: PK in portal vein plasma of Wistar rats (before hepatic clearance)
# experimental-parameters: male, Wistar, rat, po, 66.7 mg/kg

>  <molecule>
COc1ccc2cc3[n+](cc2c1OC)CCc1cc2c(cc1-3)OCO2 [BBR, berberine]

>  <endpoint-unit>
ng/mL

>  <Cmax>
63.1

$$$$
>  <molecule>
COc1ccc2cc3[n+](cc2c1O)CCc1cc2c(cc1-3)OCO2 [M1, Berberrubine]

>  <endpoint-unit>
ng/mL

>  <Cmax>
3.5

$$$$

###

# experimental-details: Liver distribution in Wistar rats
# experimental-parameters: male, Wistar, rat, liver, po, 66.7 mg/kg, Tmax, Wistar rats, single oral BBR 66.7 mg/kg alone, n = 5
Let's look at some compounds and their measured Tmax.
assay-metric: Tmax (h)

>  <compound>
COc1ccc2cc3[n+](cc2c1O)CCc1cc2c(cc1-3)OCO2 [M1, Berberrubine]

>  <quantitative-result>
4

$$$$
>  <compound>
COc1ccc2cc3[n+](cc2c1OC)CCc1cc(O)c(O)cc1-3 [M3, demethyleneberberine]

>  <quantitative-result>
2

$$$$
>  <compound>
COc1ccc2cc3[n+](cc2c1OC)CCc1cc2c(cc1-3)OCO2 [BBR, berberine]

>  <quantitative-result>
2

$$$$
>  <compound>
COc1cc2c(cc1O)-c1cc3ccc(OC)c(OC)c3c[n+]1CC2 [M5, columbamine]

>  <quantitative-result>
2

$$$$
>  <compound>
COc1c(O)ccc2cc3[n+](cc12)CCc1cc2c(cc1-3)OCO2 [M2, Thalifendine]

>  <quantitative-result>
4

$$$$
>  <compound>
COc1cc2c(cc1O)CC[n+]1cc3c(OC)c(OC)ccc3cc1-2 [M4, jatrorrhizine]

>  <quantitative-result>
2

$$$$

###

Listed here: items and their measured increase in Cmax on co-administration vs single treatment.
# experimental-details: Liver distribution in Wistar rats
# experimental-parameters: Wistar rats, liver
assay-metric: increase in Cmax on co-administration vs single treatment (%)

>  <query-smiles>
COc1ccc2cc3[n+](cc2c1OC)CCc1cc(O)c(O)cc1-3

>  <quantitative-result>
174

$$$$
>  <query-smiles>
COc1ccc2cc3[n+](cc2c1OC)CCc1cc2c(cc1-3)OCO2

>  <quantitative-result>
136

$$$$
>  <query-smiles>
COc1cc2c(cc1O)CC[n+]1cc3c(OC)c(OC)ccc3cc1-2

>  <quantitative-result>
156

$$$$
>  <query-smiles>
COc1c(O)ccc2cc3[n+](cc12)CCc1cc2c(cc1-3)OCO2

>  <quantitative-result>
117

$$$$
>  <query-smiles>
COc1ccc2cc3[n+](cc2c1O)CCc1cc2c(cc1-3)OCO2

>  <quantitative-result>
109

$$$$

###

# experimental-details: in vivo
# experimental-parameters: male, Wistar, rat, po, 33.3 mg/kg, Tmax
assay-metric: Tmax (min)

>  <compound>
CC(CCC1(O)OC2CC3C4CCC5CC(OC6OC(CO)C(O)C(O)C6OC6OC(CO)C(O)C(O)C6O)CCC5(C)C4CCC3(C)C2C1C)COC1OC(CO)C(O)C(O)C1O (stereo not shown) [TB-2, timosaponin B2]

>  <assay-metric>
Tmax

>  <quantitative-result>
12

$$$$

###

Reported Cmax values are given for each entry in this list.
# experimental-details: Liver distribution in Wistar rats
# experimental-parameters: male, Wistar, rat, liver, po, 33.3 mg/kg, Cmax ± SE, Wistar rats, liver, single oral BBR+TB-2 (66.7+33.3 mg/kg), n = 5

>  <query-smiles>
COc1ccc2cc3[n+](cc2c1OC)CCc1cc2c(cc1-3)OCO2

>  <Cmax / ng/g>
1880

$$$$
>  <query-smiles>
COc1c(O)ccc2cc3[n+](cc12)CCc1cc2c(cc1-3)OCO2

>  <Cmax / ng/g>
1660

$$$$
>  <query-smiles>
COc1ccc2cc3[n+](cc2c1OC)CCc1cc(O)c(O)cc1-3

>  <Cmax / ng/g>
106

$$$$
>  <query-smiles>
COc1cc2c(cc1O)-c1cc3ccc(OC)c(OC)c3c[n+]1CC2

>  <Cmax / ng/g>
184

$$$$
>  <query-smiles>
COc1ccc2cc3[n+](cc2c1O)CCc1cc2c(cc1-3)OCO2

>  <Cmax / ng/g>
238

$$$$
>  <query-smiles>
COc1cc2c(cc1O)CC[n+]1cc3c(OC)c(OC)ccc3cc1-2

>  <Cmax / ng/g>
200

$$$$
